# abundance fitness listing for each entry below
B1: Chromodomain-helicase-DNA-binding protein 4, residues 444 to 496; numbered along this chain, Q14839 (parent)
chain: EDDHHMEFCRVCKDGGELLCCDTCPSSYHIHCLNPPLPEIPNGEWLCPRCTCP

variants of: B1; test: abundance fitness (aPCA) (normalised: wild type 0, dead -1); higher = more abundant; growth selection in yeast, the domain comes from the species named; conditions: Homo sapiens
No unit in the answer, please; the number alone is enough.

Value lookup for abundance fitness; key = C47I
-0.697

Also need N42P , thanks.
-0.065

Can you handle C20E next?
0.136

Follow-up entry: R49P
-0.187

Please do the same for D3L as well.
0.342
